# assay explanation: Binding affinity to biotinylated (5'-AGCAGCAGCA-3'/5'-TGCTGCTGCT-3') hairpin DNA (unknown origin) assessed as […] of compound from 2:1 compound and DNA complex by SPR assay
quantity name: Kd (nM)
State the answer as a number, implicitly in nM.

Field Kd (entry CC(=O)Nc1cn(C)c(C(=O)Nc2cc(C(=O)NCCC(=O)Nc3cn(C)c(C(=O)Nc4cc(C(=O)NCCC(=O)NCCCN(C)CCCN)n(C)c4)n3)n(C)c2)n1 ) reads 13
